targetOfAssay: UniProtKB P21918
assayInfo: Antagonist activity at human Dopamine D5 receptor in HEK293 cells assessed as change in SKF 38393-induced intracellular calcium response
Format: functional, cell-based
Activity calls are given as the source filed them. No cut-off for these calls is given here.
quantityMeasured: Activity

Recorded results for 6 molecules are shown here.
O=C1Cc2ccccc2N1CCCCN1CCN(c2cccc(C(F)(F)F)c2)CC1 : inactive
O=C1c2ccccc2CN1CCCCN1CCN(c2ccc(Cl)cc2)CC1 : inactive
O=C1c2ccccc2CN1CCCCN1CCN(c2cccc(C(F)(F)F)c2)CC1 : inactive
O=C1c2ccccc2S(=O)(=O)N1CCCCN1CCN(c2cccc(C(F)(F)F)c2)CC1 : inactive
O=C1Cc2ccccc2N1CCCCN1CCN(c2ccc(Cl)cc2)CC1 : inactive
O=C1c2ccccc2S(=O)(=O)N1CCCCN1CCN(c2ccc(Cl)cc2)CC1 : inactive

Enquiry: Specify measured Activity for O=c1c2ccccc2ncn1CCCCN1CCN(c2cccc(C(F)(F)F)c2)CC1 .
Return: inactive

---

targetOfAssay: D(2) dopamine receptor (Homo sapiens, UniProt P14416)
Sequence (P14416 whole entry, canonical isoform): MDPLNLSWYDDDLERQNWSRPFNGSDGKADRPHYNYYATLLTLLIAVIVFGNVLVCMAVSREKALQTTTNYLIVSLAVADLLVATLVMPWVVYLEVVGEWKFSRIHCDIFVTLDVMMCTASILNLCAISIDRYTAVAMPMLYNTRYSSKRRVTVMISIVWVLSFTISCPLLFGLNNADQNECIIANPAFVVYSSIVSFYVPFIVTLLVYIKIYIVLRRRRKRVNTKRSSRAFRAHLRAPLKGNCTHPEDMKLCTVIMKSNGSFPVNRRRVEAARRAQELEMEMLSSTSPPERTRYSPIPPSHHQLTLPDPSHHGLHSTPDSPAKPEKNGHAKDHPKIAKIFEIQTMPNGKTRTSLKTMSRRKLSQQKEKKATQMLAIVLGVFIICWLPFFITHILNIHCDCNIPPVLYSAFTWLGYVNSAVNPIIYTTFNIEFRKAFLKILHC
assayInfo: Antagonist activity at human Dopamine receptor D2 isoform long expressed in HEK293 cells assessed as change in quinpirole-induced intracellular calcium response
Format: functional, cell-based
quantityMeasured: Ki (µM)
Write the answer as a number in µM, unit excluded.

Recorded results for 3 compounds are shown here.
O=C1Cc2ccccc2N1CCCCN1CCN(c2ccc(Cl)cc2)CC1 : 0.375
O=C1c2ccccc2CN1CCCCN1CCN(c2cccc(C(F)(F)F)c2)CC1 : 0.026
O=C1Cc2ccccc2N1CCCCN1CCN(c2cccc(C(F)(F)F)c2)CC1 : 0.416

Would you kindly look at the next entry?
Enquiry: Please look at COc1ccccc1N1CCN(CCCCn2cnc3ccccc3c2=O)CC1 and tell me its recorded Ki on D(2) dopamine receptor (Homo sapiens, UniProt P14416).
Return: 0.0012

---

Here, each record is paired with measured Ki data.
targetOfAssay: D(1B) dopamine receptor (Homo sapiens)
assayInfo: Displacement of [3H]SCH 23390 from human Dopamine D5 receptor expressed in HEK293
Write the answer as a number in nM, unit excluded.

O=C1c2ccccc2S(=O)(=O)N1CCCCN1CCN(c2ccc(Cl)cc2)CC1 : 230
O=C1Cc2ccccc2N1CCCCN1CCN(c2ccc(Cl)cc2)CC1 : 202
O=C1c2ccccc2S(=O)(=O)N1CCCCN1CCN(c2cccc(C(F)(F)F)c2)CC1 : 1760
O=c1c2ccccc2ncn1CCCCN1CCN(c2ccc(Cl)cc2)CC1 : 507
O=c1c2ccccc2ncn1CCCCN1CCN(c2cccc(C(F)(F)F)c2)CC1 : 1700
O=C1Cc2ccccc2N1CCCCN1CCN(c2cccc(C(F)(F)F)c2)CC1 : 190

Enquiry: Specify measured Ki for O=C1c2ccccc2CN1CCCCN1CCN(c2cccc(C(F)(F)F)c2)CC1 .
Return: 80.8

Enquiry: Specify measured Ki for O=C1c2ccccc2CN1CCCCN1CCN(c2ccc(Cl)cc2)CC1 .
Return: 33.6

---

assayInfo: Displacement of [3H]spiperone from human Dopamine D4.4 receptor expressed in CHO cells at 10 uM
Assay type: cell-based
quantityMeasured: Activity (%)
Write the answer as a number in %, unit excluded.

Recorded results for 4 molecules are shown here.
O=C1Cc2ccccc2N1CCCCN1CCN(c2cccc(C(F)(F)F)c2)CC1 : 96
O=C1c2ccccc2CN1CCCCN1CCN(c2cccc(C(F)(F)F)c2)CC1 : 95
O=C1Cc2ccccc2N1CCCCN1CCN(c2ccc(Cl)cc2)CC1 : 101
O=c1c2ccccc2ncn1CCCCN1CCN(c2cccc(C(F)(F)F)c2)CC1 : 98

Enquiry: Specify measured Activity for O=c1c2ccccc2ncn1CCCCN1CCN(c2ccc(Cl)cc2)CC1 .
Return: 102

Enquiry: Specify measured Activity for O=C1c2ccccc2CN1CCCCN1CCN(c2ccc(Cl)cc2)CC1 .
Return: 91

Enquiry: Specify measured Activity for O=C1c2ccccc2S(=O)(=O)N1CCCCN1CCN(c2ccc(Cl)cc2)CC1 .
Return: 101

Enquiry: Specify measured Activity for O=C1c2ccccc2S(=O)(=O)N1CCCCN1CCN(c2cccc(C(F)(F)F)c2)CC1 .
Return: 54

---

Consider the following pKi values measured on D(3) dopamine receptor (Homo sapiens, UniProt P35462).
Sequence (P35462 whole entry): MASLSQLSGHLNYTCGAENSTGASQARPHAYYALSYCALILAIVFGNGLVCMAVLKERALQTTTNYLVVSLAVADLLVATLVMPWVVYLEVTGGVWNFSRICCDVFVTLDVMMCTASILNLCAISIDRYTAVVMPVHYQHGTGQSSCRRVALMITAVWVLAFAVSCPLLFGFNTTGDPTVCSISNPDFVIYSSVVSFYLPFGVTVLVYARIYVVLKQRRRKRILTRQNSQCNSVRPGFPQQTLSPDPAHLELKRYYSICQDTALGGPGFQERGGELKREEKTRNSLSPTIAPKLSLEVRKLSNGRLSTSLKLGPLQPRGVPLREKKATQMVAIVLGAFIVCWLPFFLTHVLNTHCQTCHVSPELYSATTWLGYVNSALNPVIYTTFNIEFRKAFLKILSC
Kindly note that pKi refers to -log10 of the concentration in mol/L and answer with the value alone.

Recorded results for 3 compounds are shown here.
O=C1c2ccccc2CN1CCCCN1CCN(c2cccc(C(F)(F)F)c2)CC1 : 7.85
O=C1c2ccccc2S(=O)(=O)N1CCCCN1CCN(c2cccc(C(F)(F)F)c2)CC1 : 6.97
O=C1Cc2ccccc2N1CCCCN1CCN(c2cccc(C(F)(F)F)c2)CC1 : 6.61

Would you kindly look at the next entry?
Enquiry: Specify measured pKi for O=C1Cc2ccccc2N1CCCCN1CCN(c2ccc(Cl)cc2)CC1 .
Return: 5.92

---

Here, each record is paired with measured Activity data.
targetOfAssay: D(1B) dopamine receptor (Homo sapiens, UniProt P21918)
Sequence (P21918 whole entry): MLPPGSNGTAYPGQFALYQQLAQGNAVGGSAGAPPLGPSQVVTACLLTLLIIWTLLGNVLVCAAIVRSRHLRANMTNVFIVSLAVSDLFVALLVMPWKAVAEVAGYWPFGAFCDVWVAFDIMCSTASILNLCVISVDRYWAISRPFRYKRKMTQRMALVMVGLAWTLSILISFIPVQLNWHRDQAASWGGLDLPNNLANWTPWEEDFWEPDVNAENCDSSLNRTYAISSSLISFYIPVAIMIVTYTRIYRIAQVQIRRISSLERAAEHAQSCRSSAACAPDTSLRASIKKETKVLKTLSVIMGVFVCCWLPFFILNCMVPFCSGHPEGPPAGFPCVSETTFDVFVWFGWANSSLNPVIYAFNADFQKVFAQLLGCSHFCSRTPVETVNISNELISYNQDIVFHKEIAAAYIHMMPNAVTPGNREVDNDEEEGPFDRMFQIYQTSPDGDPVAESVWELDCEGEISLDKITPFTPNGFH
assayInfo: Displacement of [3H]SCH 23390 from human Dopamine D5 receptor expressed in HEK293 cells at 10 uM
Assay type: cell-based
Write the answer as a number in %, unit excluded.

O=c1c2ccccc2ncn1CCCCN1CCN(c2ccc(Cl)cc2)CC1 : 76
O=C1c2ccccc2S(=O)(=O)N1CCCCN1CCN(c2cccc(C(F)(F)F)c2)CC1 : 89

Enquiry: Specify measured Activity for O=C1c2ccccc2S(=O)(=O)N1CCCCN1CCN(c2ccc(Cl)cc2)CC1 .
Return: 87
